- ASSAY_TARGET: human MOR (Homo sapiens)
- Construct: FLAG (N); expressed in transfected cells; host or cells: HEK 293
- Format: biochemical
REPORTED_ENDPOINT: effect on basal 35S-GTPγS binding activity

Consider the following illustrative entries.
[
  {
    "COMPOUND": "C=C1CC[C@@]2(O)[C@H]3Cc4ccc(O)c5c4[C@@]2(CCN3CC2CC2)[C@H]1O5 [nalmefene, reference compound]",
    "TEST_VALUE": "decreased"
  },
  {
    "COMPOUND": "C=CCN1CC[C@]23c4c5ccc(O)c4O[C@H]2[C@H](O)CC[C@@]3(O)[C@H]1C5",
    "TEST_VALUE": "no significant effect"
  },
  {
    "COMPOUND": "C=CCN1CC[C@]23c4c5ccc(O)c4O[C@H]2[C@@H](O)CC[C@@]3(O)[C@H]1C5",
    "TEST_VALUE": "no significant effect"
  },
  {
    "COMPOUND": "O=C1/C(=C/c2ccccc2)C[C@@]2(O)[C@H]3Cc4ccc(O)c5c4[C@@]2(CCN3CC2CC2)[C@H]1O5 [BNTX, 7-benzylidene-7-dehydronaltrexone, reference compound]",
    "TEST_VALUE": "decreased"
  },
  {
    "COMPOUND": "CC(=O)N[C@@H]1CC[C@@]2(O)[C@H]3Cc4ccc(O)c5c4[C@@]2(CCN3CC2CC2)[C@@H]1O5 [6β-naltrexamide]",
    "TEST_VALUE": "no significant effect"
  }
]

// sample O=C(/C=C/c1ccc(Cl)cc1)N[C@@]12CCC(=O)[C@@H]3Oc4c(O)ccc5c4[C@@]31CCN(CC1CC1)[C@@H]2C5 [C-CAM, clocinnamox, reference compound] , its effect on basal 35S-GTPγS binding activity was decreased

// sample N[C@H]1CC[C@@]2(O)[C@H]3Cc4ccc(O)c5c4[C@@]2(CCN3CC2CC2)[C@H]1O5 , its effect on basal 35S-GTPγS binding activity was no significant effect

// sample COC(=O)C=CC(=O)NC1CCC2(O)C3Cc4ccc(O)c5c4C2(CCN3CC2CC2)C1O5.Cl (stereo not drawn) [β-FNA, β-funaltrexamine HCl, reference compound] , its effect on basal 35S-GTPγS binding activity was no significant effect

====

- ASSAY_TARGET: human MOR (Homo sapiens, UniProt P35372)
- Construct: FLAG (N); expressed in transfected cells; host or cells: HEK 293
- Sequence (P35372 whole entry): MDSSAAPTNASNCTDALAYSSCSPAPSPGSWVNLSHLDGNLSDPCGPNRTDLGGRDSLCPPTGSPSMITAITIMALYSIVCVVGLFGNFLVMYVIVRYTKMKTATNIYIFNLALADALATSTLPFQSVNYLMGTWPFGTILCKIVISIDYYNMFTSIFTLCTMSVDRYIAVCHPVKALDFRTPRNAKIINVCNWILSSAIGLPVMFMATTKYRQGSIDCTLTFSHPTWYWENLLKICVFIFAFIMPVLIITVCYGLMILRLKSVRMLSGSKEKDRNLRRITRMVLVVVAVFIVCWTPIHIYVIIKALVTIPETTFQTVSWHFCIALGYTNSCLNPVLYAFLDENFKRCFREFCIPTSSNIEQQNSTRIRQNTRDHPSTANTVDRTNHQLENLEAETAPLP
- Type: cell-based
REPORTED_ENDPOINT: effect on forskolin stimulated cAMP levels

[
  {
    "MOLECULE": "C=CCN1CC[C@]23c4c5ccc(O)c4O[C@H]2[C@H](O)CC[C@@]3(O)[C@H]1C5",
    "ASSAY_TARGET": "human MOR (Homo sapiens, UniProt P35372)",
    "TEST_VALUE": "no effect"
  },
  {
    "MOLECULE": "C=CCN1CC[C@]23c4c5ccc(O)c4O[C@H]2[C@@H](O)CC[C@@]3(O)[C@H]1C5",
    "ASSAY_TARGET": "human MOR (Homo sapiens, UniProt P35372)",
    "TEST_VALUE": "no effect"
  },
  {
    "MOLECULE": "O=C(/C=C/c1ccc(Cl)cc1)N[C@@]12CCC(=O)[C@@H]3Oc4c(O)ccc5c4[C@@]31CCN(CC1CC1)[C@@H]2C5 [C-CAM, clocinnamox, reference compound]",
    "ASSAY_TARGET": "human MOR (Homo sapiens, UniProt P35372)",
    "TEST_VALUE": "increased"
  },
  {
    "MOLECULE": "O=C1/C(=C/c2ccccc2)C[C@@]2(O)[C@H]3Cc4ccc(O)c5c4[C@@]2(CCN3CC2CC2)[C@H]1O5 [BNTX, 7-benzylidene-7-dehydronaltrexone, reference compound]",
    "ASSAY_TARGET": "human MOR (Homo sapiens, UniProt P35372)",
    "TEST_VALUE": "increased"
  }
]
